- tested system: T1, HLA-A*01:01 (human, biotinylated heavy chain)
- T1 construct: Conditional HLA class I complex (heavy chain + B2M) first held by a UV-labile peptide; the tested peptide is exchanged in after UV cleavage
- test name: UV peptide exchange; HLA class I ELISA
The entries below come with measured Exch II (%) values attached.
Write down the numeric answer in % and omit the unit.

> print(dat)
                                     binder    parameter  endpoint.value
1  IAMDSAITL [Peptide 2, 9-mer IAMDSAITL derived from FUS1 (SEQ ID NO: 1001)]  Exch II (%)               7
2  AMDSAITLW [Peptide 1, 9-mer AMDSAITLW derived from FUS1 (SEQ ID NO: 1001)]  Exch II (%)             4.6
3  SLIAMDSAI [Peptide 3, 9-mer SLIAMDSAI derived from FUS1 (SEQ ID NO: 1001)]  Exch II (%)             6.9
4  SLYHREKQL [Peptide 4, 9-mer SLYHREKQL derived from P22 (SEQ ID NO: 1003)]  Exch II (%)             6.4

Moving on to another binder below.
Exam item: Returns the measured Exch II (%) for the input binder. Input: KQLIAMDSA [Peptide 9, 9-mer KQLIAMDSA derived from P22 (SEQ ID NO: 1003)]
Marked response: 6.3
